# Test system: woolly cupgrass (Eriochloa villosa)
# ASSAY OVERVIEW: Test C preemergence
# Assay type: in vivo
# STATED CONDITIONS: preemergence, Rate 250 g/ha, visual evaluation after 12 to 14 days
# Plant response rating (0 to 100), Cupgrass, Woolly values compiled below
MEASURED ATTRIBUTE: Plant response rating (0 to 100), Cupgrass, Woolly

COMPOUND	TARGET SYSTEM	RESULT
CC(C)c1ccn(C2SCN(c3cccc(OC(F)(F)F)c3)C2=O)n1 (stereo not shown) [Compound 31]	woolly cupgrass (Eriochloa villosa)	90
CCC(C)c1ccn(C2CCN(c3ccc(C)c(OC)c3)C2=O)n1 (stereo not shown) [Compound 80]	woolly cupgrass (Eriochloa villosa)	100
CCC(C)c1ccn(C2CCN(c3cccc(OC(C)C)c3)C2=O)n1 (stereo not shown) [Compound 83]	woolly cupgrass (Eriochloa villosa)	100
CCC(C)c1ccn(C2SCN(c3cccc(OC(F)(F)F)c3)C2=O)n1 (stereo not shown) [Compound 32]	woolly cupgrass (Eriochloa villosa)	90
CC(C)(C)c1ccn(C2CCN(c3ccc(Cl)c(Br)c3)C2=O)n1 (stereo not shown) [Compound 56]	woolly cupgrass (Eriochloa villosa)	0
CC(C)(C)c1ccn(C2SCN(c3cccc(OC(F)(F)F)c3)C2=O)n1 (stereo not shown) [Compound 30]	woolly cupgrass (Eriochloa villosa)	90
CCC(C)c1ccn(C2SCN(c3cccc(C(F)(F)F)c3)C2=O)n1 (stereo not shown) [Compound 20]	woolly cupgrass (Eriochloa villosa)	90
CC(C)(C)c1ccn(C2CCN(c3ccc(F)c(Br)c3)C2=O)n1 (stereo not shown) [Compound 75]	woolly cupgrass (Eriochloa villosa)	100
CC(C)(C)c1ccn(C2CCN(c3ccc(Cl)c(Cl)c3)C2=O)n1 (stereo not shown) [Compound 34]	woolly cupgrass (Eriochloa villosa)	80
COc1cc(N2CCC(n3ccc(C(C)C)n3)C2=O)ccc1C (stereo not shown) [Compound 85]	woolly cupgrass (Eriochloa villosa)	100
CC(C)c1ccn(C2OCN(c3cccc(C(F)(F)F)c3)C2=O)n1 (stereo not shown) [Compound 27]	woolly cupgrass (Eriochloa villosa)	100
CC(C)(C)c1ccn(C2CCN(c3cccc(OC(F)F)c3)C2=O)n1 (stereo not shown) [Compound 76]	woolly cupgrass (Eriochloa villosa)	100
CC(C)c1ccn(C2SCN(c3cccc(OC(F)F)c3)C2=O)n1 (stereo not shown) [Compound 44]	woolly cupgrass (Eriochloa villosa)	100
